Tgt: human recombinant ERβ (Homo sapiens)
Construct: purchased PanVera (Madison, Wis.)
Sequence (Q92731 whole entry): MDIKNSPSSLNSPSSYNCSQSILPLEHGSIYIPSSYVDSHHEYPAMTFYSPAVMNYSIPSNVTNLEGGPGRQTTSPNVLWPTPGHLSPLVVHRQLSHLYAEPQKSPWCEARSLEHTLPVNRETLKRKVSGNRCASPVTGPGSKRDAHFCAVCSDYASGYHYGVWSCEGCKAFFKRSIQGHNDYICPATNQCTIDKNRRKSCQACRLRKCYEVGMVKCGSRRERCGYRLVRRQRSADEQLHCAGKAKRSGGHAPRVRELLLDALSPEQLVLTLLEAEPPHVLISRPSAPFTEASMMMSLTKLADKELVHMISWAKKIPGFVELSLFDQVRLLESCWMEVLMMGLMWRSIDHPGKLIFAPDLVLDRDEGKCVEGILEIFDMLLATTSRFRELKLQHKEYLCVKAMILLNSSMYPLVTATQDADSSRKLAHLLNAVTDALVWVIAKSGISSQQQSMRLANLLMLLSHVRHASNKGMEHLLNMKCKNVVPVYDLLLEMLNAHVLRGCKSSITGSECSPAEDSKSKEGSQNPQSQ
Method Summary: Fluorescence polarization estrogen receptor (ERFP) binding assay, ERβ
Test Conditions: ratio α-ER Ki / β-ER Ki
Experimental Readout: FP Selectivity

Field: example entries. Status: answers known.
Compound | Tgt | Experimental Readout | Recorded Value
CCC1c2ccc(O)cc2CCN1c1ccc(O)cc1 (stereo not drawn) [Example 15] | human recombinant ERβ (Homo sapiens) | FP Selectivity | 3.3
Oc1ccc(N2Cc3ccc(O)cc3C2)cc1 [Example 25, 5-Hydroxy-2-(4-hydroxyphenyl)isoindoline] | human recombinant ERβ (Homo sapiens) | FP Selectivity | 3.5

(1) Cc1ccc(O)cc1N1CCc2cc(O)ccc2C1C (stereo not drawn) [Example 18]
(2) COc1ccc([N+](=O)[O-])cc1N1CCc2cc(O)ccc2C1 [Example 4]
Kindly identify which of 1 and 2 has the larger recorded FP Selectivity value. // output: label of the selected item 1
(1: 2.1, 2: 1.4)

(I) Cc1ccc(N2CCc3cc(O)ccc3C2c2ccccc2)cc1O (stereo not drawn) [Example 20]
(II) Oc1ccc(N2CCc3cc(O)ccc3C2c2ccc(C(F)(F)F)cc2)cc1 (stereo not drawn) [Example 9]
Hi there, can you help? I need to know whether I or II has lower measured FP Selectivity. // output: label of the selected item II
(II: 1.6, I: 2.5)

(I) CCc1ccc(C2c3ccc(O)cc3CCN2c2ccc(O)cc2)cc1 (stereo not drawn) [Example 11]
(II) CCC1c2ccc(O)cc2CCN1c1ccc(O)c(Cl)c1 (stereo not drawn) [Example 19]
Hi there, can you help? I need to know whether I or II has lower measured FP Selectivity. // output: label of the selected item I
(I: 1.1, II: 3.0)

* * *

Tgt: βER (Homo sapiens, UniProt Q92731)
Construct: expressed in transfected cells; host or cells: 293 cells (Human Embryonic Kidney, ATCC CRL-1573)
Sequence (Q92731 54-530 limits assumed): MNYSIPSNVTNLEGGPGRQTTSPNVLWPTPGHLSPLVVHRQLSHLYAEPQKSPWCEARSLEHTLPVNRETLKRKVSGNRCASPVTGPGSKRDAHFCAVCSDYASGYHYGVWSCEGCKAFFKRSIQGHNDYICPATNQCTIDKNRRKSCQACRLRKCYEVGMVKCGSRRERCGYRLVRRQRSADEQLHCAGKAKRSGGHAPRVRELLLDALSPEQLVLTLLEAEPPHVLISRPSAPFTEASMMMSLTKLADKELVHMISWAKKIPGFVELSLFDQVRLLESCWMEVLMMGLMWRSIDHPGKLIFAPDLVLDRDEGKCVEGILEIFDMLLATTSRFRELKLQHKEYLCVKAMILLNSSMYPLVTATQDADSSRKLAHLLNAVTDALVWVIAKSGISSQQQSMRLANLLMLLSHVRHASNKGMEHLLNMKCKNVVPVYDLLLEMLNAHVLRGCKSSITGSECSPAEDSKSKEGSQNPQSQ
Method Summary: Cell-based assay for ER transcriptional activity (ERE β-gal reporter), βER-transfected 293 cells
Test Conditions: 293 cells transfected with βER and ERE reporter; maximal response; unit assumed
Experimental Readout: ERE β-ER Max (%)

Field: example entries. Status: answers known.
Compound | Unit Symbol | ERE β-ER Max
CC1c2ccc(O)cc2CCN1c1ccc(O)cc1 (centres unmarked) | % | 44
CCC1c2cc(O)ccc2CN1c1ccc(O)cc1 (centres unmarked) | % | 85
Cc1ccccc1C1c2ccc(O)cc2CCN1c1ccc(O)cc1 (centres unmarked) | % | 71
Cc1ccc(N2CCc3cc(O)ccc3C2c2ccoc2)cc1O (centres unmarked) | % | 106
CC1c2ccc(O)cc2CCN1c1cccc(O)c1 (centres unmarked) | % | 72

(1) Oc1ccc(N2Cc3ccc(O)cc3C2)cc1 [Example 25, 5-Hydroxy-2-(4-hydroxyphenyl)isoindoline]
(2) Cc1ccc(O)cc1N1CCc2cc(O)ccc2C1C (centres unmarked)
Hi there, can you help? I need to know whether 1 or 2 has lower measured ERE β-ER Max. // output: label of the selected item 1

(a) Oc1ccc2c(c1)CCN(c1ccc(Cl)cc1Cl)C2
(b) Oc1ccc(N2CCc3cc(O)ccc3C2c2ccccc2)cc1 (centres unmarked)
(c) CCC1c2ccc(O)cc2CCN1c1ccc(O)c(Cl)c1 (centres unmarked)
Given 3 compounds, produce a descending ranking by ERE β-ER Max. List labels; respect the requested ordering. b, a, c

(a) Cc1ccc(N2CCc3cc(O)ccc3C2c2ccccc2)cc1O (centres unmarked)
(b) CCC1c2ccc(O)cc2CCN1c1ccc(O)cc1 (centres unmarked)
Hi there, can you help? I need to know whether a or b has lower measured ERE β-ER Max. // output: label of the selected item b

(I) Cc1cc(O)ccc1N1CCc2cc(O)ccc2C1
(II) Oc1ccc(N2CCc3cc(O)ccc3C2c2ccc(Cl)cc2Cl)cc1 (centres unmarked)
Hi there, can you help? I need to know whether I or II has lower measured ERE β-ER Max. // output: label of the selected item II
